pKi for Histamine H3 receptor (Homo sapiens), merged from several publications.
Convention used: pKi is expressed as -log10 of the molar concentration.

See these solved cases before continuing.
compound=CSc1nc2cc(F)ccc2n1C1CCN(C(=O)C2CCN(Cc3cnc(N)nc3)CC2)CC1 measured=8.40
compound="COc1ccc(C2CN(C)Cc3cc(OCCCN4CCN(CCO)CC4)ccc32)cc1 (stereo not drawn)" measured=7.37
compound=CCN(CC)CCCNc1ccc(-c2cn3ccc(C)cc3n2)cc1 measured=8.52

stdin: Could you share which pKi value was measured for COc1cccc(C2CNCc3cc(OCCCN4CCCCC4)ncc32)c1 (stereo not drawn) ?
stdout: 9.00

stdin: Could you share which pKi value was measured for CCN(CCOc1ccc(-c2cn3ccccc3n2)cc1)c1ccccc1 ?
stdout: 6.21

stdin: Could you share which pKi value was measured for COc1ccc(C2CN(C)Cc3cc(OCC4CCN(C5CCC5)CC4)ccc32)cc1Cl (stereo not drawn) ?
stdout: 8.22

stdin: Could you share which pKi value was measured for CC(C)N1CCN(C(=O)c2ccc(NCCN3CCOCC3)nc2)CC1 ?
stdout: 7.85
